Entries and their GI50
- Test system: HCT-15 colon
- TEST_SUMMARY: NCI tumour cell line growth inhibition, 48 h

COMPOUND	GI50
COc1c(OC2OC(C)C(O)C(O)C2O)c(OC)c2oc(-c3ccc(O)cc3)cc(=O)c2c1O (stereo unspecified)	40.3 µM
Cc1cc(C)c(-c2c(O)c(Br)c(-c3c(C)cc(C)c(Br)c3C)c(O)c2Br)c(C)c1Br	2.51 µM
COc1ccc(C(=O)Cn2c(C(=O)c3ccc(Cl)cc3)nc(-c3ccccc3)c2-c2ccccc2)cc1	> 100 µM
C=C(CN1CCN(c2ccccn2)CC1)c1ccc(C(=O)Nc2ccccc2N)cc1	1.91 µM
CN(CCOc1ccc(NS(C)(=O)=O)cc1)CCc1ccc(NS(C)(=O)=O)cc1	> 100 µM
COc1cccc(C2C(C#N)=C(N)Oc3cc(OCCCCCC[P+](c4ccccc4)(c4ccccc4)c4ccccc4)ccc32)c1 (stereo unspecified)	2.24 µM
